Test system: CP50-MEL-B;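 also: growth inhibition of the human cell line, measured with a cell viability read-out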
measurement-protocol: cells
Type: functional, cell-based, Homo sapiens
experimental-parameters: Homo sapiens, CP50-MEL-B
Description: SANGER: Inhibition of human CP50-MEL-B cell growth in a cell viability assay.
pIC50: −log10 of the molar value.
value-type: pIC50

Consider the following illustrative entries.
# molecule, test-system, value-type, reported-value
measured = [
    ("C=C(c1ccc(C(=O)O)cc1)c1cc2c(cc1C)C(C)(C)CCC2(C)C [BEXAROTENE]", "CP50-MEL-B", "pIC50", "< 5.10"),
    ("CS(=O)(=O)c1ccc(C(=O)Nc2ccc(Cl)c(-c3ccccn3)c2)c(Cl)c1 [VISMODEGIB]", "CP50-MEL-B", "pIC50", "< 5.00"),
    ("CC1(C)CNc2cc(NC(=O)c3cccnc3NCc3ccncc3)ccc21 [MOTESANIB]", "CP50-MEL-B", "pIC50", "< 5.70"),
    ("Cc1cc([N+](=O)[O-])ccc1NS(=O)(=O)c1cc(Cl)ccc1Cl", "CP50-MEL-B", "pIC50", 5.99),
    ("CO[C@H]1C[C@@H]2CC[C@@H](C)[C@@](O)(O2)C(=O)C(=O)N2CCCC[C@H]2C(=O)O[C@H]([C@H](C)C[C@@H]2CC[C@@H](OC(=O)C(C)(CO)CO)[C@H](OC)C2)CC(=O)[C@H](C)/C=C(\\C)[C@@H](O)[C@@H](OC)C(=O)[C@H](C)C[C@H](C)/C=C/C=C/C=C/1C [TEMSIROLIMUS]", "CP50-MEL-B", "pIC50", "< 6.70"),
]

Let us move to another entry and its pIC50.
Req: Specify pIC50 for COc1cc2c(Nc3ccc(NC(=O)c4ccccc4)cc3)ncnc2cc1OCCCN1CCOCC1 and stop.
Resp: < 5.40

----------
Test system: PA-1
measurement-protocol: cells
Assay type: functional, cell-based, Homo sapiens
experimental-parameters: Homo sapiens, PA-1
Description: SANGER: Inhibition of human PA-1 cell growth in a cell viability assay.
value-type: IC50

Consider the following illustrative entries.
# chem-smiles, reported-value
measured = [
    ("CCN(CC)CCCCNc1ncc2cc(-c3cc(OC)cc(OC)c3)c(NC(=O)NC(C)(C)C)nc2n1", "> 2 µM"),
    ("Cn1cnc2c(F)c(Nc3ccc(Br)cc3Cl)c(C(=O)NOCCO)cc21", "> 4 µM"),
    ("Cc1cn(-c2cc(NC(=O)c3ccc(C)c(Nc4nccc(-c5cccnc5)n4)c3)cc(C(F)(F)F)c2)cn1", "> 2 µM"),
    ("CS(=O)(=O)c1ccc(C(=O)Nc2ccc(Cl)c(-c3ccccn3)c2)c(Cl)c1", "> 10 µM"),
    ("C=C(c1ccc(C(=O)O)cc1)c1cc2c(cc1C)C(C)(C)CCC2(C)C", "> 8 µM"),
    ("COc1cc2c(Nc3ccc(NC(=O)c4ccccc4)cc3)ncnc2cc1OCCCN1CCOCC1", "2.87 µM"),
]

Let us move to another entry and its IC50.
Req: Enter recorded IC50 with PA-1 for Oc1ccc2ccccc2c1SSc1c(O)ccc2ccccc12 here.
Resp: 27.1 µM

----------
Tested on: COLO-679
measurement-protocol: cells
Format: functional, cell-based, Homo sapiens
experimental-parameters: colo-679
Description: SANGER: Inhibition of human COLO-679 cell growth in a cell viability assay.
value-type: pIC50
# reply with the number alone; pIC50 is -log10 of concentration in mol/L

# entry-sequence, value-type, reported-value
rows = [
    ("BLEOMYCIN", "pIC50", 5.57),
]

Let us move to another entry and its pIC50.
Req: Specify pIC50 for CISPLATIN and stop.
Resp: 3.12

----------
Test system: KYSE-450;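 also: cell growth inhibition measured by a viability assay in human KYSE-450 cells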
measurement-protocol: cells
Type: functional, cell-based, Homo sapiens
experimental-parameters: kyse-450
Description: SANGER: Inhibition of human KYSE-450 cell growth in a cell viability assay.
value-type: IC50 (µM)
Kindly provide the numeric value in µM only, without the unit symbol.

Req: Specify IC50 for CISPLATIN and stop.
Resp: 72.8

----------
System: NB17;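 also: growth inhibition of NB17 cells, read out with a cell viability assay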
measurement-protocol: cells
Type: functional, cell-based, Homo sapiens
experimental-parameters: Homo sapiens, NB17
Description: SANGER: Inhibition of human NB17 cell growth in a cell viability assay.
value-type: IC50

# compound, test-system, IC50
data = [
    ("CC[C@H](CO)Nc1nc(NCc2ccccc2)c2ncn(C(C)C)c2n1", "NB17", "> 16 µM"),
    ("COc1cc2ncn(-c3cc(OCc4ccccc4S(C)(=O)=O)c(C#N)s3)c2cc1OC [GSK-319347A]", "NB17", "> 5 µM"),
    ("Cc1ccc(-c2c(C(=O)CCl)n(CCCO)c3ncnc(N)c23)cc1", "NB17", "1.12 µM"),
    ("CS(=O)(=O)c1ccc(C(=O)Nc2ccc(Cl)c(-c3ccccn3)c2)c(Cl)c1", "NB17", "> 10 µM"),
]

Req: Specify IC50 for CN(C)C(=N)NC(=N)N and stop.
Resp: > 20000 µM

----------
Test system: SCC-9;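 also: Read-out is a cell viability assay, with values giving inhibition of cell growth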
measurement-protocol: cells
Format: functional, cell-based, Homo sapiens
experimental-parameters: Homo sapiens, SCC-9
Description: SANGER: Inhibition of human SCC-9 cell growth in a cell viability assay.
value-type: IC50

Consider the following illustrative entries.
# compound, test-system, IC50
records = [
    ("Nc1cccc2c1CN(C1CCC(=O)NC1=O)C2=O (stereo unspecified) [LENALIDOMIDE]", "SCC-9", "> 5 µM"),
    ("Oc1ccc2ccccc2c1SSc1c(O)ccc2ccccc12", "SCC-9", "> 32 µM"),
    ("CO[C@H]1C[C@@H]2CC[C@@H](C)[C@@](O)(O2)C(=O)C(=O)N2CCCC[C@H]2C(=O)O[C@H]([C@H](C)C[C@@H]2CC[C@@H](OC(=O)C(C)(CO)CO)[C@H](OC)C2)CC(=O)[C@H](C)/C=C(\\C)[C@@H](O)[C@@H](OC)C(=O)[C@H](C)C[C@H](C)/C=C/C=C/C=C/1C", "SCC-9", "> 0.2 µM"),
    ("CS(=O)(=O)c1ccc(C(=O)Nc2ccc(Cl)c(-c3ccccn3)c2)c(Cl)c1", "SCC-9", "> 10 µM"),
    ("CN(C)C(=N)NC(=N)N", "SCC-9", "10200 µM"),
]

Let us move to another entry and its IC50.
Req: Specify IC50 for CC(C)c1ccccc1Cc1cc(C(=O)Nc2ccc(S(=O)(=O)c3ccccc3C(C)(C)C)cc2)c(O)c(O)c1O and stop.
Resp: 0.957 µM

----------
System: LU-134-A
measurement-protocol: cells
Assay type: functional, cell-based, Homo sapiens
experimental-parameters: Homo sapiens, LU-134-A
Description: SANGER: Inhibition of human LU-134-A cell growth in a cell viability assay.
Examples of compounds with documented pIC50 follow.
# reply with the number alone; pIC50 is -log10 of concentration in mol/L

# compound, pIC50
measured = [
    ("Nc1ccn([C@@H]2O[C@H](CO)[C@@H](O)C2(F)F)c(=O)n1", 7.40),
    ("N#Cc1c(O)c2c(-c3ccc(-c4ccccc4O)cc3)csc2[nH]c1=O", 6.64),
    ("CC(C)CCN1c2nc(Nc3cc(F)c(O)c(F)c3)ncc2N(C)C(=O)C1C (centres undefined)", 5.40),
]

Let us move to another entry and its pIC50.
Req: Specify pIC50 for CC(=O)O[C@H]1C(=O)[C@@]2(C)[C@H]([C@H](OC(=O)c3ccccc3)[C@]3(O)C[C@H](OC(=O)[C@H](O)[C@@H](NC(=O)c4ccccc4)c4ccccc4)C(C)=C1C3(C)C)[C@]1(OC(C)=O)CO[C@@H]1C[C@@H]2O and stop.
Resp: 7.32

----------
Examples of molecules with documented IC50 follow.
Tested on: SW1463;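 also: growth inhibition of SW1463 cells, determined with a cell viability assay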
measurement-protocol: cells
Format: functional, cell-based, Homo sapiens
experimental-parameters: Homo sapiens, SW1463
Description: SANGER: Inhibition of human SW1463 cell growth in a cell viability assay.

Consider the following illustrative entries.
# molecule, IC50
data = [
    ("CCN(CC)CCCCNc1ncc2cc(-c3cc(OC)cc(OC)c3)c(NC(=O)NC(C)(C)C)nc2n1 [PD-173074]", "> 2 µM"),
    ("Cc1cc([N+](=O)[O-])ccc1NS(=O)(=O)c1cc(Cl)ccc1Cl", "7.85 µM"),
]

Req: Specify IC50 for CCC/C=C/C=C/C(=O)O[C@H]1/C(=C/C(=O)OC)C[C@H]2C[C@H]([C@@H](C)O)OC(=O)C[C@H](O)C[C@@H]3C[C@H](OC(C)=O)C(C)(C)[C@](O)(C[C@@H]4C/C(=C/C(=O)OC)C[C@H](/C=C/C(C)(C)[C@]1(O)O2)O4)O3 [BRYOSTATIN 1] and stop.
Resp: > 0.008 µM

----------
Examples of molecules with documented IC50 follow.
Test system: MZ7-mel;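 also: growth inhibition of human MZ7-mel cells, measured by a cell viability assay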
measurement-protocol: cells
Format: functional, cell-based, Homo sapiens
experimental-parameters: Homo sapiens, MZ7-mel
Description: SANGER: Inhibition of human MZ7-mel cell growth in a cell viability assay.

Consider the following illustrative entries.
# chem-smiles, IC50
measured = [
    ("Cc1ccc(-c2c(C(=O)CCl)n(CCCO)c3ncnc(N)c23)cc1", "> 4 µM"),
    ("CCC/C=C/C=C/C(=O)O[C@H]1/C(=C/C(=O)OC)C[C@H]2C[C@H]([C@@H](C)O)OC(=O)C[C@H](O)C[C@@H]3C[C@H](OC(C)=O)C(C)(C)[C@](O)(C[C@@H]4C/C(=C/C(=O)OC)C[C@H](/C=C/C(C)(C)[C@]1(O)O2)O4)O3", "> 0.008 µM"),
    ("CS(=O)(=O)c1ccc(C(=O)Nc2ccc(Cl)c(-c3ccccn3)c2)c(Cl)c1", "> 10 µM"),
]

Let us move to another entry and its IC50.
Req: Enter recorded IC50 with MZ7-mel for Cn1cnc2c(F)c(Nc3ccc(Br)cc3Cl)c(C(=O)NOCCO)cc21 here.
Resp: > 4 µM

Source listed as ChEMBL document CHEMBL1201861.
